Can you tell me IC50 for the items I'm about to list?
- TARGET_OR_TEST_SYSTEM: K-RAS4B^G12D (Homo sapiens, UniProt P01116, G12D)
- Sequence (P01116 1-188 isoform P01116-2 G12D): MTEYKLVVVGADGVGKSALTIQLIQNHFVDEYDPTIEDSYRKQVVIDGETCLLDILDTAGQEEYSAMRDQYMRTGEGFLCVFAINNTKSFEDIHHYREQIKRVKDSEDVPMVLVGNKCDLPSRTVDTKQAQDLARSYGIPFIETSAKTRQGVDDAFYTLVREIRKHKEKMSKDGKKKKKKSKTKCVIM
- ASSAY_OVERVIEW: biochemical
- CONDITIONS: K-RAS4B GDP/GTP exchange; eight data points, at least three determinations

So what does the record say about IC50 for "CC1(C)CC[C@]2(C(=O)O)CC[C@]3(C)C(=CC[C@@H]4[C@@]5(C)CC[C@H](OC(=O)c6sccc6C(=O)O)C(C)(C)[C@@H]5CC[C@]43C)[C@@H]2C1" ?
3.06 µM

Record request: IC50 value, item "C=C(C)[C@@H]1CC[C@]2(C(=O)O)CC[C@]3(C)[C@H](CC[C@@H]4[C@@]5(C)CC[C@H](OC(=O)c6cc(F)c(F)cc6C(=O)O)C(C)(C)[C@@H]5CC[C@]43C)[C@@H]12"
5 µM

Fill in: IC50 of "C[C@H]1[C@H](C)CC[C@]2(C(=O)O)CC[C@]3(C)C(=CC[C@@H]4[C@@]5(C)CC[C@H](OC(=O)c6c(F)ccc(F)c6C(=O)O)C(C)(C)[C@@H]5CC[C@]43C)[C@H]12" is ___
2.64 µM

Data request, read-out IC50, for "C=C(C)[C@@H]1CC[C@]2(C(=O)O)CC[C@]3(C)[C@H](CC[C@@H]4[C@@]5(C)CC[C@H](O)C(C)(C)[C@@H]5CC[C@]43C)[C@@H]12"
> 300 µM

Need IC50 of "C=C(C)[C@@H]1CC[C@]2(C(=O)O)CC[C@]3(C)[C@H](CC[C@@H]4[C@@]5(C)CC[C@H](OC(=O)c6nccnc6C(=O)O)C(C)(C)[C@@H]5CC[C@]43C)[C@@H]12" , thanks.
11.8 µM

Looking for the measured IC50 of "C[C@H]1[C@H](C)CC[C@]2(C(=O)O)CC[C@]3(C)C(=CC[C@@H]4[C@@]5(C)CC[C@H](OC(=O)c6cc(F)c(F)cc6C(=O)O)C(C)(C)[C@@H]5CC[C@]43C)[C@H]12" , can you help?
2.53 µM

Quick one: IC50 of "C=C(C)[C@@H]1CC[C@]2(C(=O)O)CC[C@]3(C)[C@H](CC[C@@H]4[C@@]5(C)CC[C@H](OC(=O)c6sccc6C(=O)O)C(C)(C)[C@@H]5CC[C@]43C)[C@@H]12" ?
1.83 µM

====

# K-RAS4B wild-type (Homo sapiens): IC50 values follow
# Sequence (P01116 1-188 isoform P01116-2): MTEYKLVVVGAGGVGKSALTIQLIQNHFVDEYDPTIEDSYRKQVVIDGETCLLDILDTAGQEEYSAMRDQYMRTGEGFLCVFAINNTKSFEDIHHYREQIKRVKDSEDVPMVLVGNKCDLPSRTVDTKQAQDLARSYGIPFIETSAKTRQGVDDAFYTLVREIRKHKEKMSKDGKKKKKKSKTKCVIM
Express the result in µM but write the number alone.

Param item = "C=C(C)[C@@H]1CC[C@]2(C(=O)O)CC[C@]3(C)[C@H](CC[C@@H]4[C@@]5(C)CC[C@H](OC(=O)c6cc(F)c(F)cc6C(=O)O)C(C)(C)[C@@H]5CC[C@]43C)[C@@H]12" ; retrieve measured IC50.
39.1

Which measured IC50 value corresponds to "C=C(C)[C@@H]1CC[C@]2(C(=O)O)CC[C@]3(C)[C@H](CC[C@@H]4[C@@]5(C)CC[C@H](OC(=O)c6nccnc6C(=O)O)C(C)(C)[C@@H]5CC[C@]43C)[C@@H]12" ?
23.3

Tell me the measured IC50 of CC(C=O)[C@@H]1CC[C@]2(C(=O)O)CC[C@]3(C)[C@H](CC[C@@H]4[C@@]5(C)CC[C@H](OC(=O)c6ccccc6C(=O)O)C(C)(C)[C@@H]5CC[C@]43C)[C@@H]12 (some centres unmarked) , please.
37.3

Recorded IC50 for "C[C@H]1[C@H](C)CC[C@]2(C(=O)O)CC[C@]3(C)C(=CC[C@@H]4[C@@]5(C)CC[C@H](OC(=O)c6c(F)ccc(F)c6C(=O)O)C(C)(C)[C@@H]5CC[C@]43C)[C@H]12" , please?
3.46

Given the entry C=C(C)[C@@H]1CC[C@]2(C(=O)O)CC[C@]3(C)[C@H](CC[C@@H]4[C@@]5(C)CC[C@H](OC(=O)CC(C)(C)C(=O)O)C(C)(C)[C@@H]5CC[C@]43C)[C@@H]12 [Compound 28, bevirimat, reference compound] , report its measured IC50.
2.15

====

- TARGET_OR_TEST_SYSTEM: K-RAS4B^G12D (Homo sapiens, UniProt P01116, G12D)
- ASSAY_OVERVIEW: biochemical
- CONDITIONS: K-RAS4B GDP/GTP exchange; eight data points, at least three determinations
Could you please report measured pIC50 for the items listed next?
Please keep in mind that pIC50 is minus log10 of the molar concentration; only the number is needed.

Any idea what its pIC50 is? The compound is "CC1(C)CC[C@]2(C(=O)O)CC[C@]3(C)C(=CC[C@@H]4[C@@]5(C)CC[C@H](OC(=O)c6c(F)ccc(F)c6C(=O)O)C(C)(C)[C@@H]5CC[C@]43C)[C@@H]2C1"
5.54

// pIC50 lookup, key: "CC1(C)CC[C@]2(C(=O)Nc3nnn[nH]3)CC[C@]3(C)C(=CC[C@@H]4[C@@]5(C)CC[C@H](O)C(C)(C)[C@@H]5CC[C@]43C)[C@@H]2C1"
4.56

Return reported pIC50; argument: "C=C(C)[C@@H]1CC[C@]2(C(=O)O)CC[C@]3(C)[C@H](CC[C@@H]4[C@@]5(C)CC[C@H](OC(=O)c6ccccc6C(=O)O)C(C)(C)[C@@H]5CC[C@]43C)[C@@H]12"
4.98

Entry under review: "CC1(C)CC[C@]2(C(=O)NO)CC[C@]3(C)C(=CC[C@@H]4[C@@]5(C)CC[C@H](OC(=O)c6cc(F)c(F)cc6C(=O)O)C(C)(C)[C@@H]5CC[C@]43C)[C@@H]2C1" . Reported pIC50?
5.12

Given "C=C(C)[C@@H]1CC[C@]2(C(=O)O)CC[C@]3(C)[C@H](CC[C@@H]4[C@@]5(C)CC[C@H](OC(=O)c6c(F)ccc(F)c6C(=O)O)C(C)(C)[C@@H]5CC[C@]43C)[C@@H]12" , state its recorded pIC50.
5.06

Which value of pIC50 has been reported for "CC1(C)CC[C@]2(C(=O)O)CC[C@]3(C)C(=CC[C@@H]4[C@@]5(C)CC[C@H](OC(=O)c6cc(F)c(F)cc6C(=O)O)C(C)(C)[C@@H]5CC[C@]43C)[C@@H]2C1" in the records?
5.65

I have this compound here, "C=C(C)[C@@H]1CC[C@]2(COC(=O)/C=C\C(=O)O)CC[C@]3(C)[C@H](CC[C@@H]4[C@@]5(C)CC[C@H](O)C(C)(C)[C@@H]5CC[C@]43C)[C@@H]12" , and I need its recorded pIC50.
5.17

Give the measured pIC50 of "C=C(C)[C@@H]1CC[C@]2(COC(=O)CCC(=O)O)CC[C@]3(C)[C@H](CC[C@@H]4[C@@]5(C)CC[C@H](O)C(C)(C)[C@@H]5CC[C@]43C)[C@@H]12" .
4.98

Look up pIC50: "COc1cc(C(=O)O)c(C(=O)O[C@H]2CC[C@]3(C)[C@H]4CC=C5[C@@H]6[C@@H](C)[C@H](C)CC[C@]6(C(=O)O)CC[C@@]5(C)[C@]4(C)CC[C@H]3C2(C)C)cc1OC"
4.25

// query pIC50 value for entry "C=C(C)[C@@H]1CC[C@]2(COC(=O)CCC(=O)O)CC[C@]3(C)[C@H](CC[C@@H]4[C@@]5(C)CC[C@H](OC(=O)c6cc(F)c(F)cc6C(=O)O)C(C)(C)[C@@H]5CC[C@]43C)[C@@H]12"
6.18

Name the recorded pIC50 for "C=C(C)[C@@H]1CC[C@]2(COC(=O)CCC(=O)O)CC[C@]3(C)[C@H](CC[C@@H]4[C@@]5(C)CC[C@H](OC(=O)c6c(F)ccc(F)c6C(=O)O)C(C)(C)[C@@H]5CC[C@]43C)[C@@H]12" .
5.84

I'd like to know its pIC50. The compound in question is C=C(C)[C@@H]1CC[C@]2(C(=O)O)CC[C@]3(C)[C@H](CC[C@@H]4[C@@]5(C)CC[C@H](OC(=O)CC(C)(C)C(=O)O)C(C)(C)[C@@H]5CC[C@]43C)[C@@H]12 [Compound 28, bevirimat, reference compound]
6.23

Using the record for CC1(C)CCC23CCC4(C)C5(C)CCC6C(C)(C)C(OC(=O)c7c(F)ccc(F)c7C(=O)O)CCC6(C)C5CC(O)C4(OC2=O)C3C1 (stereo not shown) , report its pIC50.
4.57

State the recorded pIC50 for this entry: CC(C=O)[C@@H]1CC[C@]2(C(=O)O)CC[C@]3(C)[C@H](CC[C@@H]4[C@@]5(C)CC[C@H](OC(=O)c6ccccc6C(=O)O)C(C)(C)[C@@H]5CC[C@]43C)[C@@H]12 (stereo partly shown)
4.31

Any idea what its pIC50 is? The compound is COc1cc(C(=O)O)c(C(=O)OC2CCC3(C)C(CCC4(C)C3CC=C3C5CC(C)(C)CCC5(C(=O)O)CCC34C)C2(C)C)cc1OC (stereo not shown)
5.79

Suppose we examine the compound "C=C(C)[C@@H]1CC[C@]2(COC(=O)CCC(=O)O)CC[C@]3(C)[C@H](CC[C@@H]4[C@@]5(C)CC[C@H](OC(=O)CCC(=O)O)C(C)(C)[C@@H]5CC[C@]43C)[C@@H]12" ; what pIC50 value has been reported?
6.15

What does the record list as pIC50 for COC(=O)[C@]12CC[C@@H](C(C)C(=O)O)[C@@H]1[C@H]1CC[C@@H]3[C@@]4(C)CC[C@H](OC(C)=O)C(C)(C)[C@@H]4CC[C@@]3(C)[C@]1(C)CC2 (stereo partly shown) ?
4.86

Which pIC50 is listed for "CC1(C)CC[C@]2(C(=O)O)CC[C@]3(C)C(=CC[C@@H]4[C@@]5(C)CC[C@H](OC(=O)c6ccsc6C(=O)O)C(C)(C)[C@@H]5CC[C@]43C)[C@@H]2C1" ?
5.44

What value of pIC50 has been recorded for this entry: "C=C(C)[C@@H]1CC[C@]2(C(=O)O)CC[C@]3(C)[C@H](CC[C@@H]4[C@@]5(C)CC[C@H](OC(=O)c6cc(OC)c(OC)cc6C(=O)O)C(C)(C)[C@@H]5CC[C@]43C)[C@@H]12"
4.44
